Sourced from patent US10005829B2

Biological target: T1, APJ receptor (human, UniProt P35414 1-380)
T1 sequence (looked up): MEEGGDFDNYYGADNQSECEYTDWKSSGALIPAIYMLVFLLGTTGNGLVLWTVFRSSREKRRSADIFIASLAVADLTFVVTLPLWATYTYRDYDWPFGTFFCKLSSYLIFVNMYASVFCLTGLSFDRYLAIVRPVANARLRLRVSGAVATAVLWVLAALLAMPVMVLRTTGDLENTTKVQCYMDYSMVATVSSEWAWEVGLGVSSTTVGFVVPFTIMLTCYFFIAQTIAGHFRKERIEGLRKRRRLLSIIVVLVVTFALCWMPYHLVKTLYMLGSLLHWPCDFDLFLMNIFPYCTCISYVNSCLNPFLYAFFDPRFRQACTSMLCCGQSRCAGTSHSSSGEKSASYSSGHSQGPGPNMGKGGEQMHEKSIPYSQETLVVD
Assay: cell-based or functional assay
[ ]: non-standard residue; d: D form. pGlu = O=C1CC[C@@H](C(=O)O)N1; dNle = CCCC[C@@H](N)C(=O)O
metric.name: hAPJ Ca^2+ Flux EC50 (pM)
All answers are understood in pM, so give the number only.

For [pGlu]RPRL[dS]HKGP[dNle][dA][dF]-OH (SMILES CCCC[C@@H](NC(=O)[C@@H]1CCCN1C(=O)CNC(=O)[C@H](CCCCN)NC(=O)[C@H](Cc1c[nH]cn1)NC(=O)[C@@H](CO)NC(=O)[C@H](CC(C)C)NC(=O)[C@H](CCCNC(=N)N)NC(=O)[C@@H]1CCCN1C(=O)[C@H](CCCNC(=N)N)NC(=O)[C@@H]1CCC(=O)N1)C(=O)N[C@H](C)C(=O)N[C@H](Cc1ccccc1)C(=O)O) [pE-R-P-R-L-s-H-K-G-P-nle-a-f-OH] , what is its reported hAPJ Ca^2+ Flux EC50?
900
